Reported log10 of IC50, inhibition of mammalian RR activity values for the following binders.
assayedSystem: calf thymus R1 (calf)
Square brackets hold non-standard residues; d marks the D form. Ends that are not written are not given here. Phe(4-N3) = [N-]=[N+]=Nc1ccc(C[C@H](N)C(=O)O)cc1; Phe(4-NH2) = Nc1ccc(C[C@H](N)C(=O)O)cc1
measureName: log10 of IC50, inhibition of mammalian RR activity (log10 of the value in µM)

> print(dat)
                                     binder  measuredresult
1                 Ac-FTVDADF [Ac-(FTVDADF)]            1.48
2  Ac-[Phe(4-NH2)]TLDADF [Ac-(F(4'-NH2)TLDADF)]            2.00
3                 Ac-FTLDLDF [Ac-(FTLDLDF)]            1.45
4                 Ac-FTADADF [Ac-(FTADADF)]            2.32
5                     Ac-FTLDADFAA [Ac-(…)]            2.70
6     Ac-FTLDDF [Ac-(FTLDDF) (3 pos. del.)]            2.51
7     Ac-FLDADF [Ac-(FLDADF) (6 pos. del.)]            2.61
8  Ac-[Phe(4-N3)]TLDADF [Ac-(F(4'-N3)TLDADF)]            2.00
